# PROCEDURE_DETAILS: gradient 5% acetonitrile 3 min, to 50% in 2 min, to 85% in 15 min, held 3 min, 100 µL/min
# RUN_CONDITIONS: column: Zorbax Extend-C18 2.1 x 50 mm; eluents: water / acetonitrile, 0.1% formic acid
QUANTITY_NAME: RP-LC retention time (s)

// worked examples, RP-LC retention time included
COMPOUND	UNIT_ABBREVIATION	REPORTED_VALUE
CC(N)Cc1c[nH]c2ccc(OCc3cccs3)cc12 (stereo not given)	s	734
COc1ccc(N2CCN(c3ccc4cc(S(=O)(=O)N5CCCCC5C)ccc4n3)CC2)cc1 (stereo not given)	s	991
CCOC(=O)N1CCN(C(=O)c2cn(CC(O)c3ccccc3)nn2)CC1 (stereo not given)	s	634

(P) COC(=O)C(C)(N)Cc1ccc(O)cc1 (stereo not given)
(Q) Cc1ccc(C)c(Cn2nc3c(S(=O)(=O)N4CCCCCC4)cccn3c2=O)c1
input: Hello, I am sorting some records. Could you say if P or Q has the smaller RP-LC retention time value? Identify your pick by its label.
output: P
(P: 573 s, Q: 1050 s)

(1) CCN1C(=O)C(CC(=O)NC(C)C)Sc2ncccc21 (stereo not given)
(2) CCOc1ccccc1-c1nc(-c2cn(Cc3ccc(F)cc3)nn2)no1
input: Kindly compare 1 with 2 and tell me which has the lower RP-LC retention time figure. Your choice should be expressed through its label.
output: 1

====

# PROCEDURE_DETAILS: gradient 5% acetonitrile 3 min, to 50% in 2 min, to 85% in 15 min, held 3 min, 100 µL/min
# RUN_CONDITIONS: column: Zorbax Extend-C18 2.1 x 50 mm; eluents: water / acetonitrile, 0.1% formic acid
QUANTITY_NAME: RP-LC retention time (s)

COMPOUND	UNIT_ABBREVIATION	REPORTED_VALUE
Cn1c(CC2CCN(C(=O)COc3cccc(Cl)c3)C2)nc2cccnc21 (stereo not given)	s	608
CNC(=O)c1nn(-c2ccc(F)c(F)c2)c(OC)cc1=O	s	651
CCCN1C(=O)c2ccccc2C(C(=O)N2CCOCC2)C1c1cc(OC)c(OC)c(OC)c1 (stereo not given)	s	684
CCn1nc(-c2ccccc2)c(-c2ccccc2)c(C(=O)NCCN(C)C)c1=O	s	648
Cc1ccc(C)c(C(=O)NCC(C)(O)c2ccccc2)c1 (stereo not given)	s	759

====

# PROCEDURE_DETAILS: gradient 5% acetonitrile 3 min, to 50% in 2 min, to 85% in 15 min, held 3 min, 100 µL/min
# RUN_CONDITIONS: column: Zorbax Extend-C18 2.1 x 50 mm; eluents: water / acetonitrile, 0.1% formic acid
QUANTITY_NAME: RP-LC retention time (s)

Some solved cases for reference:
MOLECULE	UNIT_ABBREVIATION	RP-LC retention time
O=C(c1cc(-c2ccncc2)n[nH]1)N1CCCC(C(=O)N2CC=C(c3ccccc3)CC2)C1 (centres undefined)	s	648
O=C(N1CCc2ccccc2C1)C1(c2ccccc2)CCOCC1	s	891
CCOc1ccc2cccc(NC(=O)Cc3cccs3)c2n1	s	1130
Cc1c2cnn(CC(=O)N3CCN(c4ccccn4)CC3)c(=O)c2c(C)n1Cc1ccccc1F	s	650
COc1ccc(OC)c(NC(=O)c2cc(C(C)(C)C)n3nccc3n2)c1	s	768
Cc1nc2ccn(Cc3ccco3)c(=O)c2cc1C(=O)NCCc1ccco1	s	720
COc1ccc(Cl)cc1S(=O)(=O)N(C)CC1(C)CCOCC1	s	829

(1) O=C(Cn1cccc1-c1nc(-c2ccccc2)cs1)N1CCN(C(=O)c2ccco2)CC1
(2) COc1cc(NC(=O)NC2CCN(c3cc(N4CCOCC4)cnn3)C2)cc(OC)c1 (centres undefined)
input: Which is greater in RP-LC retention time, the first item 1 or the second item 2 ? Please respond with the label that marks your chosen entry.
output: 1
(1: 899 s, 2: 629 s)

====

# PROCEDURE_DETAILS: gradient 5% acetonitrile 3 min, to 50% in 2 min, to 85% in 15 min, held 3 min, 100 µL/min
# RUN_CONDITIONS: column: Zorbax Extend-C18 2.1 x 50 mm; eluents: water / acetonitrile, 0.1% formic acid
QUANTITY_NAME: RP-LC retention time (s)

Please review the entries below; each comes with its answer.
COMPOUND	RP-LC retention time (s)
Cc1oc(-c2ccccc2)nc1Cc1noc(COc2ccccc2)n1	1090
CCc1cccc(C)c1NC(=O)Cn1c(N(C)Cc2ccccc2)nc(C)cc1=O	857
Cc1ccc(NC(=O)CN2CCC(C(=O)N3CCN(C(=O)c4ccco4)CC3)CC2)cc1	569
Cc1cnc(C2CCC2)n1C1CCN(C(=O)C2(c3ccccc3)CC2)CC1	663
Cc1ccc(Cn2nc3ccc(S(=O)(=O)N4CCOCC4)cn3c2=O)cc1	977

(a) CCn1nc(N2CCCC(NS(=O)(=O)c3c(C)nn(C)c3C)C2)ccc1=O (stereo not given)
(b) CCOC(=O)c1noc2ncnc(Nc3cc(C)ccc3C)c12
input: Between a and b , which one shows the smaller RP-LC retention time number? Pick one and reply with its label.
output: a
(a: 642 s, b: 1030 s)

(a) CCOc1ccc(NC(=O)c2cc3c(=O)n(CC)ccc3n2C)cc1
(b) O=C(Nc1ccc(F)c(Cl)c1)C1CCCN(c2ncc(-c3ccc(F)cc3)cn2)C1 (stereo not given)
input: Between a and b , which one shows the smaller RP-LC retention time number? Your answer should be the label of the entry you select.
output: a

(1) CCN1C(=O)CN(C(=O)C2CCCCC2)CC12CCOCC2
(2) Cc1cc(-c2csc(S(=O)(=O)N3CCN(C(c4ccccc4)c4ccccc4)CC3)c2)on1
input: I'm curious, which of these has a smaller RP-LC retention time number: 1 or 2 ? Your choice should be expressed through its label.
output: 1
(1: 654 s, 2: 1200 s)

====

# PROCEDURE_DETAILS: gradient 5% acetonitrile 3 min, to 50% in 2 min, to 85% in 15 min, held 3 min, 100 µL/min
# RUN_CONDITIONS: column: Zorbax Extend-C18 2.1 x 50 mm; eluents: water / acetonitrile, 0.1% formic acid
QUANTITY_NAME: RP-LC retention time (s)

(1) O=C(NCc1ccc(F)cc1F)c1cn2cc(Cl)ccc2n1
(2) CNC(=O)[C@@H]1CN(C(=O)c2cscn2)C[C@H]1c1nc(COC)no1
input: Compare 1 and 2 by numeric RP-LC retention time and name the larger one. Write the label of whichever entry you select.
output: 1

====

# PROCEDURE_DETAILS: gradient 5% acetonitrile 3 min, to 50% in 2 min, to 85% in 15 min, held 3 min, 100 µL/min
# RUN_CONDITIONS: column: Zorbax Extend-C18 2.1 x 50 mm; eluents: water / acetonitrile, 0.1% formic acid
QUANTITY_NAME: RP-LC retention time (s)

SMILES_STR	UNIT_ABBREVIATION	RP-LC retention time
Cc1ccc2c(C)nc(NC3=NCN(Cc4ccccc4)CN3)nc2c1	s	772
O=C(C1CCN(c2nc3ccc(-c4ccccc4)nc3s2)CC1)N1CCCCC1	s	1040
CCOc1ccc(Nc2c(-c3ccccc3)nc3cnccn23)cc1	s	877
NC(=O)c1ccc(I)c([N+](=O)[O-])c1	s	745
Cc1ccc(N2CN(CC(=O)Nc3ccccc3C)S(=O)(=O)c3cccnc32)cc1	s	813
Cc1cc2c(=O)n(CC(=O)Nc3ccc(C)c(Cl)c3)ccc2s1	s	896
COc1cccc(CNC2=NCCNC23CCN(S(=O)(=O)c2ccc(C)cc2)CC3)c1	s	717
CCC(C)(C)C(=O)O[C@H]1C[C@@H](C)C=C2C=C[C@H](C)[C@H](CC[C@@H](O)C[C@@H](O)CC(=O)O)[C@H]21	s	1020
COc1ccc(Cl)cc1S(=O)(=O)NCCc1cn(C)c2ncccc12	s	764

====

# PROCEDURE_DETAILS: gradient 5% acetonitrile 3 min, to 50% in 2 min, to 85% in 15 min, held 3 min, 100 µL/min
# RUN_CONDITIONS: column: Zorbax Extend-C18 2.1 x 50 mm; eluents: water / acetonitrile, 0.1% formic acid
QUANTITY_NAME: RP-LC retention time (s)

Sample records with RP-LC retention time:
MOLECULE	RP-LC retention time [s]
CC1(C)Cc2cccc(OCC(=O)NCC3CN(c4ccccc4)C(=O)O3)c2O1 (centres undefined)	796
CC(C)c1nnc(-c2ccc(=O)n(CC(=O)N3CCC4(CC3)OCCO4)c2)o1	609
Cc1ccc(NC(=O)COc2nc(C)nc3ccccc23)c(Br)c1	874
CN(C)c1nc(Nc2ccc(F)cc2)c2cnn(C)c2n1	781
CC(C)CN1CCN(C(=O)C2CCCN(c3cnc4nccnc4c3)C2)CC1 (centres undefined)	564

(P) Cn1ncc2c(NCc3ccccc3)nc(NCc3ccccc3)nc21
(Q) CCC(c1cccs1)N1C(=O)[C@H]2CN(S(=O)(=O)c3ccccc3F)C[C@H]2C1=O (some centres undefined)
input: # return whichever of P and Q has the smaller RP-LC retention time Please respond with the label that marks your chosen entry.
output: P

(1) O=C(NC1CCN(Cc2ccccc2)CC1)c1cc2c(=O)n(Cc3ccccc3)ccc2s1
(2) CN1C(=O)COc2ccc(-c3csc(NC(=O)c4cccc(Br)c4)n3)cc21
input: Looking only at measured RP-LC retention time, which entry is lower, 1 or 2 ? When you have decided, please share the label of that item.
output: 1

(P) CN1C2CCCC1CC(NC(=O)c1nn(C)c3ccccc13)C2 (centres undefined)
(Q) O=C(c1nnc(-c2ccc(S(=O)(=O)N3CCCC3)cc2)o1)N1CCC(Cc2ccccc2)CC1
input: Would you let me know which has the greater RP-LC retention time value, P or Q ? Mark your selection by writing its label.
output: Q
